# Measurement notes: Metabolic (microsomal) stability assay, human liver microsomes (HLM)
# Assay type: in vitro ADME
# Measurement context: predicted clearance as percent of liver blood flow, 1 μM
Assay metric: HLM QH

# Chemical smiles, Assay metric, Reported value
measured = [
    ("C[C@@H]1CN(c2cc(O[C@@H](C)[C@@H]3CCCN3C)nc(-c3noc4c3CCC[C@@]43CCCc4sc(N)c(C#N)c43)n2)CCN1", "HLM QH", "<24%"),
    ("C[C@H](Oc1cc(N2CCN(C)CC2)nc(-c2noc3c2CCC[C@@]32CCCc3sc(N)c(C#N)c32)n1)[C@@H]1CCCN1C", "HLM QH", "<24%"),
]

`C[C@H](Oc1cc(N2CCNC(C)(C)C2)nc(-c2noc3c2CCC[C@@]32CCCc3sc(N)c(C#N)c32)n1)[C@@H]1CCCN1C` yielded HLM QH of <24%

###

Reported values of MBI 3A4 for individual entries
# Target system: CYP3A4 (Homo sapiens (Human))
# Sequence (P08684 whole entry): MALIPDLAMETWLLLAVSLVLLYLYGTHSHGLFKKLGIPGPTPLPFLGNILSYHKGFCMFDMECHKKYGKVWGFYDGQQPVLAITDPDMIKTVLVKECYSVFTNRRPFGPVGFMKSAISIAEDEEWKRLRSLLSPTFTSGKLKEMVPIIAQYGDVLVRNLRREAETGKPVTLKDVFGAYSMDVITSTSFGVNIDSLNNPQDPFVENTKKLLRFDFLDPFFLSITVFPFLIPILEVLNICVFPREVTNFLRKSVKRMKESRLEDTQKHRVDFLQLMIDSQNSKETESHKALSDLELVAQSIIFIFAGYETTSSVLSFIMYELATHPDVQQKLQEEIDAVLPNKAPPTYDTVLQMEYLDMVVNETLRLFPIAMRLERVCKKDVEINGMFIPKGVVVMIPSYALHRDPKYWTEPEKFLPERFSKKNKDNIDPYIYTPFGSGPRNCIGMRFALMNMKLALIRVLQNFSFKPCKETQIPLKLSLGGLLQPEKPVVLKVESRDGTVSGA
# Measurement notes: Mechanism based inhibition of CYP3A4 assay (MBI 3A4)
# Type: in vitro ADME
# Measurement context: hydroxy-midazolam formation after 30 min vs 0 min preincubation, 25 uM, human liver microsomes
Quick note: unit goes after the number.

`C[C@H](Oc1cc(C2=CCOCC2)nc(-c2noc3c2CCC[C@@]32CCCc3sc(N)c(C#N)c32)n1)[C@@H]1CCCN1C` yielded MBI 3A4 of 72%

`C[C@H](Oc1cc(N2CCNC3(COC3)C2)nc(-c2noc3c2CCC[C@@]32CCCc3sc(N)c(C#N)c32)n1)[C@@H]1C[C@@H](F)CN1C` yielded MBI 3A4 of 49%

`C[C@H](Oc1cc(N2CCNC[C@@]23CCOC3)nc(-c2onc3c2CCC[C@@]32CCCc3sc(N)c(C#N)c32)n1)[C@@H]1CCCN1C` yielded MBI 3A4 of 48%

`C[C@H](Oc1cc(N2CCNC3(CC3)C2)nc(-c2noc3c2CCC[C@@]32CCCc3sc(N)c(C#N)c32)n1)[C@@H]1CCCN1C` yielded MBI 3A4 of 31%

`CC(C)N1CCCN(c2cc(-n3ccnc3)nc(-c3noc4c3CCC[C@@]43CCCc4sc(N)c(C#N)c43)n2)[C@@H](C)C1` yielded MBI 3A4 of 66%

`C[C@H](Oc1cc(N2CC3CCC(C2)N3)nc(-c2noc3c2CCC[C@@]32CCCc3sc(N)c(C#N)c32)n1)[C@@H]1CCCN1C` yielded MBI 3A4 of 83%

`C[C@H](Oc1cc(C2CCOCC2)nc(-c2noc3c2CCC[C@@]32CCCc3sc(N)c(C#N)c32)n1)[C@@H]1CCCN1C` yielded MBI 3A4 of 73%

`C[C@H](Oc1cc(-c2cccc(CO)c2)nc(-c2noc3c2CCC[C@@]32CCCc3sc(N)c(C#N)c32)n1)[C@@H]1CCCN1C` yielded MBI 3A4 of 76%

`C[C@H](Oc1cc(-c2cncnc2)nc(-c2noc3c2CCC[C@@]32CCCc3sc(N)c(C#N)c32)n1)[C@@H]1CCCN1C` yielded MBI 3A4 of 73%

`C[C@H](Oc1cc(-c2ccn(C[C@@H]3CCCO3)n2)nc(-c2noc3c2CCC[C@@]32CCCc3sc(N)c(C#N)c32)n1)[C@@H]1CCCN1C` yielded MBI 3A4 of 70%

`COCCNC(=O)c1ccn(-c2cc(O[C@@H](C)[C@@H]3CCCN3C)nc(-c3noc4c3CCC[C@@]43CCCc4sc(N)c(C#N)c43)n2)n1` yielded MBI 3A4 of 56%

`C[C@H](Oc1cc(-c2cnn(C)n2)nc(-c2noc3c2CCC[C@@]32CCCc3sc(N)c(C#N)c32)n1)[C@@H]1CCCN1C` yielded MBI 3A4 of 68%

`C[C@H](Oc1cc(-c2ccn(C)n2)nc(-c2onc3c2CCC[C@@]32CCCc3sc(N)c(C#N)c32)n1)[C@@H]1CCCN1C` yielded MBI 3A4 of 40%

`C[C@H](Oc1cc(N2CCCC2=O)nc(-c2noc3c2CCC[C@@]32CCCc3sc(N)c(C#N)c32)n1)[C@@H]1CCCN1C` yielded MBI 3A4 of 52%

`C[C@H](Oc1cc(-c2ccn(CC(C)(C)O)n2)nc(-c2onc3c2CCC[C@@]32CCCc3sc(N)c(C#N)c32)n1)[C@@H]1CCCN1C` yielded MBI 3A4 of 71%

`C[C@H](Oc1cc(N2C[C@H](C)N[C@@H](C)C2)nc(-c2onc3c2CCC[C@@]32CCCc3sc(N)c(C#N)c32)n1)[C@@H]1CCCN1C` yielded MBI 3A4 of 79%

`C[C@H](Oc1cc(N2CC[C@H](N3CCCCC3)C2)nc(-c2noc3c2CCC[C@@]32CCCc3sc(N)c(C#N)c32)n1)[C@@H]1CCCN1C` yielded MBI 3A4 of 78%

`CC(=O)N1CC=C(c2cc(O[C@@H](C)[C@@H]3CCCN3C)nc(-c3noc4c3CCC[C@@]43CCCc4sc(N)c(C#N)c43)n2)CC1` yielded MBI 3A4 of 62%

C[C@H](Oc1cc(N2CCC(C#N)C2)nc(-c2noc3c2CCC[C@@]32CCCc3sc(N)c(C#N)c32)n1)[C@@H]1CCCN1C (some centres unmarked) yielded MBI 3A4 of 78%

`C[C@H](Oc1cc(-n2cc(-c3cccnc3)nn2)nc(-c2noc3c2CCC[C@@]32CCCc3sc(N)c(C#N)c32)n1)[C@@H]1CCCN1C` yielded MBI 3A4 of 64%
